method_notes: in vivo
measurement_context: mouse, iv
Where a name gives a salt, the structure may show the parent alone.
readout_kind: MTD

*Q* Supply recorded MTD for CC[C@@](O)(C(=O)O)c1cc2n(c(=O)c1CO)Cc1cc3c(CN(C)C)c(O)ccc3nc1-2 [21S, Sodium Salt] here.
*A* 54 mg/kg

---

method_notes: in vivo
measurement_context: mouse, ip
Structures can show the parent of a compound that is named as a salt.
readout_kind: MTD (mg/kg)
Provide the reading as a plain figure in mg/kg.

*Q* Supply recorded MTD for CC[C@@]1(O)C(=O)OCc2c1cc1n(c2=O)Cc2cc3c(CN(C)C)c(O)ccc3nc2-1 [Compound No. 1S, Acetate Salt] here.
*A* 15

---

Examples of molecules with documented log10 IC50 follow.
Test system: L1210 leukemia cells
method_notes: cells
Type: cell-based, mouse
measurement_context: Mus musculus, L1210, read-out: In Vitro Activity IC50
Counter-ions that a name gives are not always drawn.
# values: log10(IC50), units nM

Some solved entries appear below for comparison.
CC[C@@]1(O)C(=O)OCc2c1cc1n(c2=O)Cc2cc3c(CSCCN(C)C)c(O)ccc3nc2-1 [14S, Hydrochloride Salt]
1.08
CC[C@@]1(O)C(=O)OCc2c1cc1n(c2=O)Cc2cc3c(CNCCN(C)C)c(O)ccc3nc2-1 [12S, Dihydrochloride Salt]
1.69
CC[C@@]1(O)C(=O)OCc2c1cc1n(c2=O)Cc2cc3c(CN4CCC(N5CCCCC5)CC4)c(O)ccc3nc2-1 [7S]
2.43
CC[C@@]1(O)C(=O)OCc2c1cc1n(c2=O)Cc2cc3c(C[N+](C)(C)C)c(O)ccc3nc2-1 [3S, Methanesulfonate Salt]
2.18
CCOCc1c(O)ccc2nc3c(cc12)Cn1c-3cc2c(c1=O)COC(=O)[C@]2(O)CC [10S]
1.68

Please look at the following molecule next.
*Q* Supply recorded log10 IC50 for CC[C@@]1(O)C(=O)OCc2c1cc1n(c2=O)Cc2cc3c(CN(C)C)c(O)ccc3nc2-1 [Compound No. 1S, Acetate Salt] here.
*A* 1.75

---

method_notes: in vivo
measurement_context: mouse, ip
Structures can show the parent of a compound that is named as a salt.
readout_kind: MTD (mg/kg)
Provide the reading as a plain figure in mg/kg.

*Q* Supply recorded MTD for CC[C@@]1(O)C(=O)OCc2c1cc1n(c2=O)Cc2cc3c(CN(C)C)c(O)ccc3nc2-1 [Compound No. 1S, Acetate Salt] here.
*A* 15

---

Examples of compounds with documented IC50 follow.
System: L1210 leukemia cells
method_notes: cells
Assay type: cell-based, mouse
measurement_context: Mus musculus, L1210, read-out: In Vitro Activity IC50
Counter-ions that a name gives are not always drawn.
Provide the reading as a plain figure in nM.

CC[C@@]1(O)C(=O)OCc2c1cc1n(c2=O)Cc2cc3c(CN4CCOCC4)c(O)ccc3nc2-1
370
CC[C@@]1(O)C(=O)OCc2c1cc1n(c2=O)Cc2cc3cc(CN)ccc3nc2-1 [20S, Acetate salt]
90
CC[C@@]1(O)C(=O)OCc2c1cc1n(c2=O)Cc2cc3c(CN4CCOCC4)cccc3nc2-1 [18S, (20S) 9-Morpholinomethylcamptothecin]
690
CC[C@@]1(O)C(=O)OCc2c1cc1n(c2=O)Cc2cc3c(CN4CCN(C)CC4)c(O)ccc3nc2-1
72
CC[C@@]1(O)C(=O)OCc2c1cc1n(c2=O)Cc2cc3c(CCN)c(O)ccc3nc2-1 [22S, Acetate Salt]
360
CC[C@@]1(O)C(=O)OCc2c1cc1n(c2=O)Cc2cc3c(CN(C)c4ccccc4)c(O)ccc3nc2-1
69

Please look at the following compound next.
*Q* Supply recorded IC50 for CC[C@@]1(O)C(=O)OCc2c1cc1n(c2=O)Cc2cc3c(C=O)c(O)ccc3nc2-1 [2S, (20 S) 9-Formyl-10-hydroxycamptothecin] here.
*A* 260

---

Examples of compounds with documented MTD follow.
method_notes: in vivo
measurement_context: mouse, ip
Where a name gives a salt, the structure may show the parent alone.
Provide the reading as a plain figure in mg/kg.

CC[C@@]1(O)C(=O)OCc2c1cc1n(c2=O)Cc2cc3c(CN(C)C)c(O)ccc3nc2-1 [Compound No. 1S, Acetate Salt]
15

Please look at the following compound next.
*Q* Supply recorded MTD for CC[C@@](O)(C(=O)O)c1cc2n(c(=O)c1CO)Cc1cc3c(CN(C)C)c(O)ccc3nc1-2 [21S, Sodium Salt] here.
*A* 54

---

method_notes: ip-implanted L1210 leukemia in mice
measurement_context: mouse, in vivo, ip
Structures can show the parent of a compound that is named as a salt.
readout_kind: MTD (mg/kg)
Provide the reading as a plain figure in mg/kg.

Some solved entries appear below for comparison.
CC[C@@]1(O)C(=O)OCc2c1cc1n(c2=O)Cc2cc3c(CN4CCOCC4)c(O)ccc3nc2-1 [5S]
100
CC[C@@]1(O)C(=O)OCc2c1cc1n(c2=O)Cc2cc3c(CSCCN(C)C)c(O)ccc3nc2-1 [14S, Hydrochloride Salt]
42
CC[C@@]1(O)C(=O)OCc2c1cc1n(c2=O)Cc2cc3c(C[N+](C)(C)C)c(O)ccc3nc2-1 [3S, Methanesulfonate Salt]
42

*Q* Supply recorded MTD for CC[C@@]1(O)C(=O)OCc2c1cc1n(c2=O)Cc2cc3c(C=O)c(O)ccc3nc2-1 [2S, (20 S) 9-Formyl-10-hydroxycamptothecin] here.
*A* 42

*Q* Supply recorded MTD for CC[C@@]1(O)C(=O)OCc2c1cc1n(c2=O)Cc2cc3c(CNCCO)c(O)ccc3nc2-1 [4S, Acetate Salt] here.
*A* 42

---

Test system: ip L1210 leukemia
method_notes: ip-implanted L1210 leukemia in mice;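 further: each mouse received 10^6 L1210 cells intraperitoneally, with drug treatment also given by the i.p. route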
measurement_context: ip L1210 (10^6 cells); drug i.p. Days 1 and 5 at maximally tolerated dose
readout_kind: In Vivo Antitumor Activity ILS (increase in lifespan)

Some solved entries appear below for comparison.
CCOCc1c(O)ccc2nc3c(cc12)Cn1c-3cc2c(c1=O)COC(=O)[C@]2(O)CC [10S]
131%
CC[C@@]1(O)C(=O)OCc2c1cc1n(c2=O)Cc2cc3c(CNC4CC4)c(O)ccc3nc2-1
131%

*Q* Supply recorded In Vivo Antitumor Activity ILS (increase in lifespan) for CC[C@@]1(O)C(=O)OCc2c1cc1n(c2=O)Cc2cc3cc(C#N)ccc3nc2-1 [16S, 10-Cyanocamptothecin] here.
*A* 100%

*Q* Supply recorded In Vivo Antitumor Activity ILS (increase in lifespan) for CC[C@@]1(O)C(=O)OCc2c1cc1n(c2=O)Cc2cc3c(CC#N)c(O)ccc3nc2-1 [17S] here.
*A* > 200%

*Q* Supply recorded In Vivo Antitumor Activity ILS (increase in lifespan) for CC[C@@]1(O)C(=O)OCc2c1cc1n(c2=O)Cc2cc3c(CNC4CCCCC4)c(O)ccc3nc2-1 [11S] here.
*A* > 200%

---

method_notes: in vivo
Design: species or system mouse
measurement_context: mouse, in vivo, ip
Where a name gives a salt, the structure may show the parent alone.
readout_kind: MTD

*Q* Supply recorded MTD for CC[C@@]1(O)C(=O)OCc2c1cc1n(c2=O)Cc2cc3c(CN(C)C)c(O)ccc3nc2-1 [Compound No. 1S, Acetate Salt] here.
*A* 10 mg/kg

---

Tested on: L1210 leukemia cells
method_notes: cells
Format: cell-based, mouse
measurement_context: Mus musculus, L1210, read-out: In Vitro Activity IC50
Description: Cells were exposed continuously upon cloning into medium containing 0.2 percent Noble agar. After incubation at 37° C. in a CO2 incubator for 3 days, colonies were stained with viable cell specific formazan stain and, 24 hours later, were enumerated by a colony counter (Biotran II, New Brunswick Scientific Co., Edison, N.J.) adjusted to identify colonies of more than 50 cells. The concentration which reduced cloning efficiency by 50 percent IC50) was determined by interpolation.
Counter-ions that a name gives are not always drawn.
Examples of compounds with documented pIC50 follow.
# pIC50: negative log10 of molar concentration; output just the value

Some solved entries appear below for comparison.
CC[C@@]1(O)C(=O)OCc2c1cc1n(c2=O)Cc2cc3c(CNC4CCCCC4)c(O)ccc3nc2-1 [11S]
7.25
CC[C@@]1(O)C(=O)OCc2c1cc1n(c2=O)Cc2cc3c(CN(C)C)cccc3nc2-1 [15S, (20S) 9-Dimethylaminomethylcamptothecin]
7.19
CC[C@@]1(O)C(=O)OCc2c1cc1n(c2=O)Cc2cc3c(CNCCO)c(O)ccc3nc2-1 [4S, Acetate Salt]
6.60
CC[C@@]1(O)C(=O)OCc2c1cc1n(c2=O)Cc2cc3c(CNC4CC4)c(O)ccc3nc2-1
6.89
CC[C@@]1(O)C(=O)OCc2c1cc1n(c2=O)Cc2cc3cc(C#N)ccc3nc2-1 [16S, 10-Cyanocamptothecin]
7.10
CC[C@@]1(O)C(=O)OCc2c1cc1n(c2=O)Cc2cc3c(CC#N)c(O)ccc3nc2-1 [17S]
6.40

Please look at the following compound next.
*Q* # lookup: L1210 leukemia cells pIC50, key = CC[C@@]1(O)C(=O)OCc2c1cc1n(c2=O)Cc2cc3cc(C=O)ccc3nc2-1 [19S, (20S) 10-Formylcamptothecin]
*A* 7.21
